Target: human RORγt (Ligand Binding Domain) (Homo sapiens, UniProt P51449)
Sequence (P51449 269-508 limits assumed): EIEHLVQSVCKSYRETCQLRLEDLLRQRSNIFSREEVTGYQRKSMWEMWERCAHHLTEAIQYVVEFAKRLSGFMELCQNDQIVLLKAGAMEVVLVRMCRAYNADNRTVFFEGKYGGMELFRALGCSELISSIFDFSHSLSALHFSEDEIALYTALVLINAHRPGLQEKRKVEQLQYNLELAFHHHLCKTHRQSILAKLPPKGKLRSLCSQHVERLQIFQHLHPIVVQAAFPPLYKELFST
pIC50: −log10 of the molar value.
observedProperty: pIC50

Reference set, count: 5
O=C(O)C(CNc1ncnc(N(Cc2ccc(C(F)(F)F)cc2)C2CC2)c1F)C1CCOCC1 (stereo not drawn) | > 5.00
CN(c1ncnc(NCc2ccc(CC(N)=O)cc2)c1F)C1(c2ccc(C(F)(F)F)cc2)CC1 | > 6.30
CCN(CC1COc2ccccc2O1)c1ncnc(NCc2ccc(CC(N)=O)cc2)c1F (stereo not drawn) | > 6.30
CS(=O)(=O)N1CCC(O)(CNc2ncnc(N(Cc3ccc(C(F)(F)F)cc3)C3CC3)c2F)CC1 | > 6.30
Cc1ccc(CNc2ncnc(N(Cc3ccc(C(F)(F)F)cc3)C3CC3)c2F)cn1 | > 6.00

pIC50 in this record for COC1CCCCC1CNc1ncnc(N(Cc2ccc(C(F)(F)F)cc2)C2CC2)c1F (stereo not drawn) : > 6.00
